Cited source: patent US6964975B2

So I've got a bunch of compounds here, and I need their pIC50 values.
target: human EDG-2 (Homo sapiens); construct: cDNA of the cloned human EDG-2 was introduced into pEFneo, which is an animal expression vector; experiment: Inhibitory activity on LPA-induced elevation of intracellular Ca2+ level; conditions: 50% inhibition of elevation of intracellular Ca2+ level by LPA, human EDG-2/HepG2 cells, fura-2
Sequence (Q92633 whole entry): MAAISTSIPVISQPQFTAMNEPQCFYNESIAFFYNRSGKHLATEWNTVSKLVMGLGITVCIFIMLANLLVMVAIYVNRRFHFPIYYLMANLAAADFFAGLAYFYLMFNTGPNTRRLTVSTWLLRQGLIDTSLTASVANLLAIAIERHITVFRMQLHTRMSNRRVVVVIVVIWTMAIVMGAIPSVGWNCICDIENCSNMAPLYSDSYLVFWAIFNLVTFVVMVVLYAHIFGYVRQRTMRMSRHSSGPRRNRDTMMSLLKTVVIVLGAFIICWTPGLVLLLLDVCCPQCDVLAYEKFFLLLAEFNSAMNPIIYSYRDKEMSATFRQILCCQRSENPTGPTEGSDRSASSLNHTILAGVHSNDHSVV
pIC50: −log10 of the molar value.

Query string: What does the record list as pIC50 for Cc1onc(-c2ccccc2)c1NC(=O)OC(c1ccccc1)C(F)(F)F (centres unmarked) [Compound 80] ?
Result string: 5.52 to 6.00

Query string: // repeat for Cc1noc(-c2ccc(OC(F)(F)F)cc2)c1NC(=O)OC(C)c1ccccc1 (centres unmarked) [Compound 35] and report
Result string: 5.00 to 5.52

Query string: // repeat for Cc1noc(-c2ccc(CSCCNC(=O)c3ccc[nH]3)cc2)c1NC(=O)OC(C)c1ccccc1Cl (centres unmarked) [Compound 149] and report
Result string: 4.52 to 5.00

Query string: // repeat for Cc1onc(-c2ccccc2)c1NC(=O)OC1CCc2ccccc2C1 (centres unmarked) [Compound 98] and report
Result string: 4.00 to 4.52

Query string: // repeat for Cc1noc(-c2ccc(CSc3nc[nH]n3)cc2)c1NC(=O)OC(C)c1ccccc1Cl (centres unmarked) [Compound 136] and report
Result string: 5.00 to 5.52

Query string: // repeat for Cc1onc(-c2ccccc2)c1NC(=O)OCc1ccccc1 [Compound 2] and report
Result string: 4.00 to 4.52

Query string: // repeat for Cc1noc(-c2cccc([N+](=O)[O-])c2)c1NC(=O)OC(C)c1ccccc1 (centres unmarked) [Compound 58] and report
Result string: 5.00

Query string: // repeat for COC(=O)CSCc1ccc(-c2onc(C)c2NC(=O)OC(C)c2ccccc2Cl)cc1 (centres unmarked) [Compound 118] and report
Result string: 5.52 to 6.00
